Recorded GI%, one value per entry.
- Test system: K-562
- assayName: NCI single-dose GI%, leukemia
- Assay type: cell-based, human
- assaySetup: K-562, leukemia; 10.0 μM in one dose
Express the result in % but write the number alone.

| molecule | systemUnderTest | GI%, % |
| --- | --- | --- |
| COc1ccc(C2=NN(C(=O)c3ccc(S(C)(=O)=O)cc3)C(c3ccccc3)C2)c(OC)c1 (stereo not shown) [Compound 18n] | K-562 | 26 |

Look up GI% of COc1ccc(C2=NN(C(=O)c3ccc(S(C)(=O)=O)cc3)C(c3ccc(OC)c(OC)c3)C2)c(OC)c1 (stereo not shown) [Compound 18p] and report it.
23

Look up GI% of COc1ccc(C2=NN(C(=O)c3ccc(S(C)(=O)=O)cc3)C(c3ccc(OC)cc3)C2)cc1 (stereo not shown) [Compound 18l] and report it.
18

Look up GI% of COc1ccc(C2CC(c3ccccc3)=NN2C(=O)c2ccc(S(C)(=O)=O)cc2)cc1 (stereo not shown) [Compound 18j] and report it.
13

Look up GI% of CS(=O)(=O)c1ccc(C(=O)N2N=C(c3ccccc3)CC2c2ccc(Cl)cc2)cc1 (stereo not shown) [Compound 18b] and report it.
32

Look up GI% of CS(=O)(=O)c1ccc(C(=O)N2N=C(c3ccc(F)cc3)CC2c2ccccc2)cc1 (stereo not shown) [Compound 18d] and report it.
32

----------
- Tested on: HCT-15
- assayName: NCI single-dose GI%, colon
- Format: cell-based, human
- assaySetup: HCT-15, colon; 10.0 μM in one dose
Recorded GI%, one value per entry.
Express the result in % but write the number alone.

| molecule | attributeMeasured | value |
| --- | --- | --- |
| Cc1ccc(C2=NN(C(=O)c3ccc(S(C)(=O)=O)cc3)C(c3ccc(C)cc3)C2)cc1 (stereo not shown) [Compound 18g] | GI% | 45 |
| CS(=O)(=O)c1ccc(C(=O)N2N=C(c3ccccc3)CC2c2ccc3c(c2)OCO3)cc1 (stereo not shown) [Compound 18m] | GI% | 14 |
| Cc1ccc(NC(=O)c2ccc(CN3CCN(C)CC3)cc2)cc1Nc1nccc(-c2cccnc2)n1 [Imatinib, reference compound] | GI% | 11.5 |

// below: GI% requested for another molecule
Look up GI% of CS(=O)(=O)c1ccc(C(=O)N2N=C(c3ccccc3)CC2c2ccccc2O)cc1 (stereo not shown) [Compound 18h] and report it.
56

----------
- Tested on: U251
- assayName: NCI single-dose GI%, CNS
- Format: cell-based, human
- assaySetup: 10.0 μM in one dose
Mark each entry met if its GI% sits below 20%, and not met for all others.

Consider the worked cases shown below.
| compound | category |
| --- | --- |
| CS(=O)(=O)c1ccc(C(=O)N2N=C(c3ccccc3)CC2c2ccccc2O)cc1 (stereo not drawn) [Compound 18h] | not met |
| CS(=O)(=O)c1ccc(C(=O)N2N=C(c3ccccc3)CC2c2ccc(F)cc2)cc1 (stereo not drawn) [Compound 18c] | met |
| Cc1ccc(C2CC(c3ccccc3)=NN2C(=O)c2ccc(S(C)(=O)=O)cc2)cc1 (stereo not drawn) [Compound 18f] | met |

Determine whether this compound shows GI% lower than 20% (ties excluded): Cc1ccc(NC(=O)c2ccc(CN3CCN(C)CC3)cc2)cc1Nc1nccc(-c2cccnc2)n1 [Imatinib, reference compound]
met

Determine whether this compound shows GI% lower than 20% (ties excluded): CS(=O)(=O)c1ccc(C(=O)N2N=C(c3ccc(F)cc3)CC2c2ccccc2)cc1 (stereo not drawn) [Compound 18d]
met

Determine whether this compound shows GI% lower than 20% (ties excluded): Cc1ccc(C2=NN(C(=O)c3ccc(S(C)(=O)=O)cc3)C(c3ccc(C)cc3)C2)cc1 (stereo not drawn) [Compound 18g]
not met
